Molecular target: HIV-1 HXBc2 gp120 (HIV-1 (HXBc2), UniProt P04578)
Experiment: SPR
ENDPOINT_NAME: IC50 (nM)

binder="Fab m18 F99Y (HCDR3) (Fab, V domains shown) VH: VQLLESGPGVVKPSETLSLTCTVSGASVNNYYWTWVRQPPGKGLEWIGNVYDSGDTNYNPSLSSRLSLSMDTSKNQFSLRLSSVTAADTATYYCARYHRHYIRGPLSFDYWGRGTLVTVSS VL: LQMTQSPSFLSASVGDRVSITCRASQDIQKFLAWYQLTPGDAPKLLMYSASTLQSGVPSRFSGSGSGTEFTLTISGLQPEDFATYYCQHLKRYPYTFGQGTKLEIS" qualifier_sign== number=62.8
binder="Fab m18 S52A (LCDR2) (Fab, V domains shown) VH: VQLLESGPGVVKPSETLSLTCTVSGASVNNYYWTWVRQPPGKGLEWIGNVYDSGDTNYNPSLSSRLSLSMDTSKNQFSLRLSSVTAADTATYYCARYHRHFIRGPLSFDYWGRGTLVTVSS VL: LQMTQSPSFLSASVGDRVSITCRASQDIQKFLAWYQLTPGDAPKLLMYSAATLQSGVPSRFSGSGSGTEFTLTISGLQPEDFATYYCQHLKRYPYTFGQGTKLEIS" qualifier_sign=> number=360
binder="Fab m18 (wild type) (Fab, V domains shown) VH: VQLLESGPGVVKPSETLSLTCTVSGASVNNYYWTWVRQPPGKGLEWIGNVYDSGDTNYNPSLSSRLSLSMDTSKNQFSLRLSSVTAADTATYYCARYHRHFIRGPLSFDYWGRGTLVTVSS VL: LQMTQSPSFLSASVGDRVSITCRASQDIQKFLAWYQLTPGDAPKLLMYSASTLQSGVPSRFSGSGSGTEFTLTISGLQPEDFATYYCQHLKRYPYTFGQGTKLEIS" qualifier_sign== number=36.1
binder="Fab m18 I100A (HCDR3) (Fab, V domains shown) VH: VQLLESGPGVVKPSETLSLTCTVSGASVNNYYWTWVRQPPGKGLEWIGNVYDSGDTNYNPSLSSRLSLSMDTSKNQFSLRLSSVTAADTATYYCARYHRHFARGPLSFDYWGRGTLVTVSS VL: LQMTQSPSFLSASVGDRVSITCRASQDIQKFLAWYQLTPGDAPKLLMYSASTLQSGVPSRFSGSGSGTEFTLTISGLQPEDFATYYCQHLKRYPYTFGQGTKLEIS" qualifier_sign=> number=500
binder="Fab m18 K31A (LCDR1) (Fab, V domains shown) VH: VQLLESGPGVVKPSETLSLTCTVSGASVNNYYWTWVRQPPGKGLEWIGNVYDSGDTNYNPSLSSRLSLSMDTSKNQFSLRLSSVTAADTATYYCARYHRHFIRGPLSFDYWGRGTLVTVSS VL: LQMTQSPSFLSASVGDRVSITCRASQDIQAFLAWYQLTPGDAPKLLMYSASTLQSGVPSRFSGSGSGTEFTLTISGLQPEDFATYYCQHLKRYPYTFGQGTKLEIS" qualifier_sign=> number=500
binder="Fab m18 F99A (HCDR3) (Fab, V domains shown) VH: VQLLESGPGVVKPSETLSLTCTVSGASVNNYYWTWVRQPPGKGLEWIGNVYDSGDTNYNPSLSSRLSLSMDTSKNQFSLRLSSVTAADTATYYCARYHRHAIRGPLSFDYWGRGTLVTVSS VL: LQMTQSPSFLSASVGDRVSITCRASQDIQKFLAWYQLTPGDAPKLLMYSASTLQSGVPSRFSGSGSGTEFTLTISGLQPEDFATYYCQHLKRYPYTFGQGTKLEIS" qualifier_sign== number=58.2
